Task for the reader: assign each of the following molecules its reported log10 of EC50.
Target: human GPR52 (Homo sapiens, UniProt Q9Y2T5)
Sequence (Q9Y2T5 whole entry): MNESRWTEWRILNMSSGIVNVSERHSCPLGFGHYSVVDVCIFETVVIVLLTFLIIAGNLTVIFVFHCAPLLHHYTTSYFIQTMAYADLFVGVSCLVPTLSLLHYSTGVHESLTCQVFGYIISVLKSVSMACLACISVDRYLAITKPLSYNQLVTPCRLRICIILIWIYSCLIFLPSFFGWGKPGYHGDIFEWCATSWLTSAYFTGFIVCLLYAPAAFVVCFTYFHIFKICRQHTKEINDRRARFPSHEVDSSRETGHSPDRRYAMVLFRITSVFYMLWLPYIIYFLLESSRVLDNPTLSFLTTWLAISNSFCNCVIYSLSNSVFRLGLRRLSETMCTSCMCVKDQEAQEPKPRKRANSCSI
Assay: GPR52 Agonist Functional cAMP Assay;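 further: HEKf cells transduced with GPR52 BacMam for 24 h, 2000 per well, exposed to compounds 30 min at 37° C with 0.5 mM IBMX, cAMP read by HTRF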
Settings: pEC50 average, HEKf cells infected with human GPR52 BacMam virus; cAMP HTRF; 30 min at 37° C.
Give log10 of EC50, with EC50 taken in nM.

Ask | Which log10 of EC50 value is on record for Cc1cc(Cc2ccnc(-n3ncc4c3CCNC4=O)c2)cnc1F ?
Reply | 2.70

Ask | Item: O=C1NCCc2c1cnn2-c1ccnc(Cc2cc(Cl)c(F)c(C(F)(F)F)c2)c1
Reply | 1.70

Ask | Next up: Cc1nn(-c2ccnc(Cc3cc(F)c(F)c(C(F)(F)F)c3)c2)c2c1C(=O)NCC2
Reply | 0.50

Ask | Query Cc1nn(-c2ccnc(Cc3ccc(OC(F)F)c(F)c3)c2)c2c1C(=O)NCC2 next
Reply | 1.00

Ask | Note, next up: O=C1NCCc2c1cnn2-c1cc(Cc2cc(F)cc(C(F)(F)F)c2)ncn1
Reply | 2.10

Ask | Try the molecule O=C1NOCc2c1cnn2-c1cc(Cc2cc(F)cc(C(F)(F)F)c2)ccn1
Reply | 1.90

Ask | Next: COc1ccc(Cc2cc(-n3ncc4c3CCNC4=O)ccn2)cc1C(F)(F)F
Reply | 2.60

Ask | What do we get for COc1cc(Cc2cc(-n3ncc4c3CCNC4=O)ccn2)ccc1C(F)(F)F ?
Reply | 2.60

Ask | Check O=C1NCCc2c1cnn2-c1ccnc(Cc2ccc(F)c(Cl)c2)c1 too.
Reply | 2.20

Ask | // repeat for O=C1NCCc2c1cnn2-c1ccnc(Cc2cc(C(F)(F)F)cc(C(F)(F)F)c2)c1 and report
Reply | 3.00

Ask | Another molecule to look at: O=C1NCCc2c1c(C(F)(F)F)nn2-c1ccnc(Cc2cc(F)cc(C(F)(F)F)c2)c1
Reply | 0.70

Ask | Same question for N#Cc1nn(-c2ccnc(Cc3cc(F)cc(C(F)(F)F)c3)c2)c2c1C(=O)NCC2 please.
Reply | 1.40

Ask | And what about the molecule O=C1NCCc2c1cnn2-c1ccnc(Cc2cc(C(F)(F)F)ccc2F)c1 ?
Reply | 2.90

Ask | Query Cc1nn(-c2ccnc(Cc3cnc(OC(F)F)c(F)c3)c2)c2c1C(=O)NCC2 next
Reply | 1.80

Ask | Repeat with O=C1c2cnn(-c3cc(Cc4cc(F)cc(C(F)(F)F)c4)ccn3)c2CCN1CCO
Reply | 1.10

Ask | Likewise for O=C1NCCc2c1cnn2-c1ccnc(Cc2cc(Cl)cc(C(F)(F)F)c2)c1 ?
Reply | 1.90

Ask | Try O=C(c1cc(F)cc(C(F)(F)F)c1)c1cc(-n2ncc3c2CCNC3=O)ccn1 next.
Reply | 3.50

Ask | And for O=C1NCCc2c1cnn2-c1ccnc(Cc2cc(F)c(Cl)c(F)c2)c1 ?
Reply | 2.00

Ask | Next molecule up: O=C1NCCc2c1nnn2-c1cc(Cc2cc(F)cc(C(F)(F)F)c2)ccn1
Reply | 2.10

Ask | What do you have for COc1ccc(Cc2cc(-n3nc(C)c4c3CCNC4=O)ccn2)cn1 ?
Reply | 2.80

Ask | Would you kindly repeat that for O=C1NCCc2c1ccn2-c1ccnc(Cc2cc(F)cc(C(F)(F)F)c2)c1 ?
Reply | 2.10

Ask | Same for O=C1NCCc2c1cnn2-c1ccnc(Cc2ccc(Cl)cc2)c1
Reply | 2.80

Ask | Next record, please: Cc1nn(-c2ccnc(Cc3cccc(C(F)(F)F)c3)c2)c2c1C(=O)NCC2
Reply | 1.30

Ask | Next molecule: Cc1nn(-c2ccnc(Cc3cc(F)cc(C#N)c3)c2)c2c1C(=O)NCC2
Reply | 1.80

Ask | Here is the next molecule: O=C1NCCc2c1cnn2-c1cc(Cc2cc(F)cc(C(F)F)c2)ccn1
Reply | 1.00

Ask | # iterate: Cc1nn(-c2cc(Cc3cc(F)cc(C(F)(F)F)c3)ccn2)c2c1C(=O)NCC2
Reply | 0.80

Ask | Note, next up: O=C1NCCc2c1cnn2-c1cc(Oc2cc(F)cc(C(F)(F)F)c2)ccn1
Reply | 1.90

Ask | Would you kindly repeat that for O=C1NCCCc2c1nnn2-c1cc(Cc2cc(F)cc(C(F)(F)F)c2)ccn1 ?
Reply | 2.30

Ask | Next: O=C1NCCc2c1cnn2-c1ccnc(Cc2cc(F)c(F)c(F)c2)c1
Reply | 2.50

Ask | Query O=C1NCCc2c1cnn2-c1ccnc(Cc2cc(F)c(F)c(C(F)(F)F)c2)c1 next
Reply | 1.30

Ask | Entry to check: O=C1NCCc2c1cnn2-c1ccnc(Cc2ccc(C(F)(F)F)cc2)c1
Reply | 2.60

Ask | Repeat for the following molecule: COc1ncc(Cc2cc(-n3nc(C)c4c3CCNC4=O)ccn2)cc1F
Reply | 2.00

Ask | Again, but for O=C1NCCc2c1cnn2-c1ccnc(Cc2ccc3sccc3c2)c1
Reply | 1.90

Ask | What do you have for O=C1NCCc2nn(-c3cc(Cc4cccc(C(F)(F)F)c4)ccn3)nc21 ?
Reply | 2.40

Ask | What would you report for Cc1cnc(Cc2cc(F)cc(C(F)(F)F)c2)cc1-n1ncc2c1CCNC2=O ?
Reply | 1.90

Origin of the recorded values: patent US20230002374A1
